# Lookup of reported cell viability at 500 µM keyed by entry
Tested on: Hep G2 cells
assay-method-text: In vitro cytotoxicity assay (EZ-Cytox)
Format: cell-based
applied-conditions: Hep G2, 48 h, 500 µM, without DMSO, relative to untreated group, n = 5-6, mean ± S.D.
Peptide text beside a SMILES is read from it.

compound: CC(=O)O[C@@]12CO[C@@H]1C[C@H](O)[C@@]1(C)C(=O)[C@H](O)C3=C(C)[C@@H](OC(=O)[C@H](O)[C@@H](N)c4ccccc4)C[C@@](O)([C@@H](OC(=O)c4ccccc4)[C@H]21)C3(C)C [de-Boc-DTX]
cell viability at 500 µM [%]: 75.3

compound: CC(=O)N[C@@H](Cc1ccccc1)C(=O)N[C@@H](CCCNC(=N)N)C(=O)N[C@@H](CCCNC(=N)N)C(=O)N[C@@H](Cc1ccccc1)C(=O)O [(Ac)FRRF, acetylated Phe-Arg-Arg-Phe peptide] (Ac-FRRF-OH)
cell viability at 500 µM [%]: 84.1

compound: CC(=O)O[C@@]12CO[C@@H]1C[C@H](O)[C@@]1(C)C(=O)[C@H](O)C3=C(C)[C@@H](OC(=O)[C@H](O)[C@@H](NC(=O)OC(C)(C)C)c4ccccc4)C[C@@](O)([C@@H](OC(=O)c4ccccc4)[C@H]21)C3(C)C [DTX, Docetaxel]
cell viability at 500 µM [%]: 57.9
